molecular target: Nucleic Acid; experiment: Binding affinity to telomeric G-quadruplex DNA 5'-d(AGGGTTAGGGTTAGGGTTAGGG) by UV titration method; format: nucleic-acid assay
Readout: Kd (nM)
Quick note: give the figure in nM, leave out the unit.

Query (compound): `NCC(CN)CCC(=O)NCCCN1C(=O)c2ccc3c4ccc5c6c(ccc(c7ccc(c2c37)C1=O)c64)C(=O)N(CCCNC(=O)CCC(CN)CN)C5=O` ; field requested: Kd
860
